Where do these numbers come from? They come from the supplement of paper PMC4466236.

System: MvaT
TEST_NAME: PBM 8-mer E-score (mean of HK and ME arrays) (E-score (dimensionless, -0.5 to 0.5)); higher = stronger relative binding preference
In all, about 33,000 sequences were measured (“E-score (dimensionless, -0.5 to 0.5)”: median about -0.058, highest 2% from about 0.35 on). Many of the other results were omitted from the sample, so the highest values are more common in it than they were.
READOUT_KIND: PBM 8-mer E-score

Example sequences with recorded PBM 8-mer E-score:
{"columns": ["SEQUENCE_ENTRY", "PBM 8-mer E-score"],
 "data": [
  ["AAAATTTG", 0.221],
  ["AACTAGGA", 0.0115],
  ["CAATCCAA", -0.0468],
  ["AAATTTAC", 0.11],
  ["CGTTGTAC", -0.0465]
]}

Task: For the sequence AGCCACCA , what PBM 8-mer E-score is on record?
Result: -0.0502

Task: Cool, now AGCGGTGG
Result: -0.209

Task: Cool, now GGGTGCAA
Result: -0.0874

Task: Cool, now ACGAACGA
Result: -0.115

Task: Cool, now AGAGGCTG
Result: -0.304

Task: Cool, now AAAATTTA
Result: 0.311

Task: Cool, now CACCGGTG
Result: -0.153

Task: Cool, now TCAAGTGA
Result: -0.00408

----------
Recorded measurements of PBM 8-mer E-score, one per entry
Tested on: MvaT
TEST_NAME: PBM 8-mer E-score (mean of HK and ME arrays) (E-score (dimensionless, -0.5 to 0.5)); higher = stronger relative binding preference
Over roughly 33,000 sequences, “E-score (dimensionless, -0.5 to 0.5)” has its median near -0.058; the highest 2% begin near 0.35. What follows is part of a selection rich in the highest values, with near analogues and random picks from the rest.
Returns: the value as a bare number; no unit string appended.

Example sequences with recorded PBM 8-mer E-score:
{"columns": ["SEQUENCE_ENTRY", "PBM 8-mer E-score"],
 "data": [
  ["AAATTAAG", 0.361],
  ["AAATTACT", 0.308],
  ["ATTATTGG", 0.293]
]}

Task: For the sequence GAATTAAC , what PBM 8-mer E-score is on record?
Result: 0.256

----------
Test system: MvaT
TEST_NAME: PBM 8-mer E-score (mean of HK and ME arrays) (E-score (dimensionless, -0.5 to 0.5)); higher = stronger relative binding preference
In all, about 33,000 sequences were measured (“E-score (dimensionless, -0.5 to 0.5)”: median about -0.058, highest 2% from about 0.35 on). Shown is part of a subset that was picked to be rich in the highest values.
Assign class by PBM 8-mer E-score: not lower than 0.3 means met; lower than 0.3 means not met.

Before answering, review these 4 worked examples.
{"columns": ["SEQUENCE_ENTRY", "CATEGORY"],
 "data": [
  ["ATTCCTCA", "not met"],
  ["ATAAATAT", "met"],
  ["GAGTATAA", "not met"],
  ["ATCATAAT", "not met"]
]}

Task: Exam item: decide whether the reported PBM 8-mer E-score for TCATATGA is at least 0.3.
Result: not met

Task: Cool, now ATAAATCG
Result: not met

Task: Cool, now CGGTACTA
Result: not met

Task: Cool, now AAGTATAT
Result: met

Task: Cool, now ATAATAAT
Result: met

Task: Cool, now CTGTATAA
Result: not met

Task: Cool, now TTGGAAAA
Result: not met

Task: Cool, now GTAATAAA
Result: met

Task: Cool, now AAGTATAC
Result: met

Task: Cool, now AATTAAGC
Result: met

Task: Cool, now CCATATAA
Result: met

Task: Cool, now AAAGTTAA
Result: met

Task: Cool, now ACATGTAC
Result: not met

Task: Cool, now GTAAATAC
Result: not met

Task: Cool, now AAGTATAA
Result: met

Task: Cool, now AGTCCAAT
Result: not met

Task: Cool, now AATTAAGT
Result: met

Task: Cool, now AAGTATAG
Result: not met

Task: Cool, now ACACCTCC
Result: not met

Task: Cool, now AGGGTACC
Result: not met
